Origin of measurements: PubChem BioAssay

Some compounds, each annotated with its measured composite z-score.
target-or-system: Fibroblast growth factor 2 (Homo sapiens)
protocol-details: basic fibroblast growth factor binding to printed compounds – biochemical, small-molecule microarray, 635/667 nm fluorescence, primary screen (AID 1133)
condition-summary: FGF2, fluorescence 635/667, higher = more signal
Answer using only a numeral; do not append any unit.

// worked examples, composite z-score included
# compound, reported-metric, value-measured
records = [
    ("NC(=O)N1C(=O)C2C(C1=O)C1C=C(CCCO)C2C(C2CC2)N1Cc1sc2ccccc2c1Cl (configuration not stated)", "composite z-score", 0.983),
    ("CN(C)CCCC[C@@H]1NC(=O)[C@@H]2C[C@H](C(=O)NCCCCCN)[C@H](c3cccc(OCCO)c3)N2C1=O", "composite z-score", 1.25),
    ("O=C1O[C@H](Cc2ccccc2)[C@@H]2[C@H]3C=CCCC=C3CN2[C@H]1Cc1ccc(O)cc1", "composite z-score", -0.579),
    ("COC(=O)[C@@]1(Cc2ccc(F)cc2)[C@H]2c3cc(C(=O)N(C)C)n(CCc4ccc(O)c(O)c4)c3C[C@H]2CN1C(=O)c1ccccc1", "composite z-score", -0.72),
    ("O=C1O[C@@H](c2ccccc2)[C@@H](c2ccccc2)N2[C@@H](c3ccccc3OCCO)[C@]3(C(=O)Nc4ccc(C#CCCO)cc43)[C@@H](C(=O)NC[C@H](O)c3ccccc3)[C@H]12", "composite z-score", 0.835),
    ("O=C1NC(=O)C2C1C=CC(C(O)c1ccc(B(O)O)cc1)N2Nc1ccc(Cl)cc1Cl (configuration not stated)", "composite z-score", -0.514),
]

Next:
Quick note, composite z-score for `CN(C)CCCNC(=O)[C@@]1(C)c2ccccc2C(=O)N(Cc2ccc(OC(F)(F)F)cc2)[C@H]1c1ccc(CO)cc1` landed at 0.389

----------
protocol-details: compound effects on hepatocellular carcinoma cell viability – HepG2, calcein-AM fluorescence, 48 h, basal, profiling panel (AID 1164); also: test concentration not given here
condition-summary: higher = more signal
Classify on z-score using L (below -0.7), M (-0.7 to below 0.3), H (0.3 or more)

For orientation, consider the following solved cases.
# compound, category
records = [
    ("CCCC[C@H]1OB(O)C[C@H]2C1=C(COc1ccccc1)C[C@H]1C(=O)C=CC(=O)[C@H]12", "M"),
    ("O=C1NC(=O)C2C1C=CC(C(O)c1ccc(B(O)O)cc1)N2Nc1ccc(Cl)cc1Cl (stereo not given)", "L"),
    ("CCN(CC)c1ccc(N2CC=CC34O[C@@H]5C=CCCOC(=O)C5[C@H]3C(=O)N(C(C)CO)[C@@H]4C2=O)cc1 (stereo not given in full)", "H"),
    ("CN(C)CCCNC(=O)[C@@H]1c2ccccc2C(=O)N(Cc2ccccc2C(F)(F)F)[C@H]1c1ccc(CO)cc1", "H"),
    ("NC(=O)N1C(=O)C2C(C1=O)C1C=C(CCCO)C2C(C2CC2)N1Cc1sc2ccccc2c1Cl (stereo not given)", "H"),
    ("CCCc1cc2c(n1CCc1ccc(Cl)cc1)C(C)C1CN(C(=O)c3ccccc3)C(C)(C(=O)OC)C21 (stereo not given)", "M"),
    ("C=C(CCCC)C(=O)CC[C@H](OC(=O)c1ccccc1-c1ccccc1C(=O)O)c1ccc(OCCO)cc1", "M"),
    ("CC1CC/C=C\\[C@H]2OC34C=CCN(C(C)(C)C)C(=O)[C@H]3N(CCCO)C(=O)[C@@H]4C2C(=O)O1 (stereo not given in full)", "L"),
    ("NC(=O)N1C(=O)C2C(C1=O)C1C=C(CCCO)C2C(c2ccc(CN3CCCC3)cc2)N1Cc1cc2c(cc1Br)OCO2 (stereo not given)", "M"),
    ("COC(=O)[C@@]1(Cc2ccc(OC)cc2)[C@H]2c3cc(C(=O)N4CCCC4)n(Cc4ccc(Cl)c(C(F)(F)F)c4)c3C[C@H]2CN1C(=O)c1ccccc1", "H"),
]

Okay, next one:
Query block: Band assignment needed for `COCCOC(=O)N1C(=O)[C@@]2(c3ccccc31)[C@H](c1ccc(O)cc1)N1[C@H](c3ccccc3)[C@H](c3ccccc3)OC(=O)[C@H]1[C@@H]2C(=O)N1CCCCCCC1` please.
Result block: H

----------
protocol-details: growth of efflux-deficient E. coli DRC39 – strain DRC39, OD650, 48 h, E. coli filamentation inducers, primary screen (AID 1179);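 also: screen aims at cell division blockers that make cells filament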
condition-summary: E. coli DRC39 delta-acrAB growth, higher = more signal, called active from +8 up or from −8 down
Some compounds, each annotated with its measured z-score.
Answer using only a numeral; do not append any unit.

// worked examples, z-score included
# compound, z-score
rows = [
    ("CC1CC/C=C\\[C@H]2OC34C=CCN(C(C)(C)C)C(=O)[C@H]3N(CCCO)C(=O)[C@@H]4C2C(=O)O1 (some centres not stated)", -0.52),
    ("[N-]=[N+]=Nc1ccccc1C[C@]1(C(=O)N2CCOCC2)N=C(c2ccc(OCCCO)cc2)O[C@H]1c1ccccc1N=[N+]=[N-]", 2.48),
    ("COCCOC(=O)N1C(=O)[C@@]2(c3cc(C#CCCO)ccc31)[C@H](C(N)=O)[C@H]1C(=O)O[C@H](c3ccccc3)[C@H](c3ccccc3)N1[C@@H]2c1ccccc1OCCO", 0.449),
    ("O=C(NCCN1CCOCC1)[C@@H]1c2ccccc2C(=O)N(Cc2ccccc2C(F)(F)F)[C@H]1c1ccc(CO)cc1", 0.192),
    ("[N-]=[N+]=NCc1ccccc1[C@@H]1OC(c2ccc(OCCCO)cc2)=N[C@]1(Cc1ccccc1N=[N+]=[N-])C(=O)NCC(O)CO (some centres not stated)", 0.625),
]

Quick note, z-score for `COC(=O)[C@@]1(Cc2ccc(OC)cc2)[C@H]2c3cc(C(=O)N4CCCC4)n(Cc4c(CO)[nH]cc(C)c4=O)c3C[C@H]2CN1C(=O)c1ccccc1` landed at 1.17

Quick note, z-score for `O=C1O[C@@H](c2ccccc2)[C@@H](c2ccccc2)N2[C@@H](c3ccc(OCCO)cc3)[C@]3(C(=O)Nc4ccc(C#CC5(O)CCCCCC5)cc43)[C@@H](C(=O)Nc3nc4ccccc4s3)[C@H]12` landed at 0.261

----------
protocol-details: binders from COS7 lysate, DM2A8 probe, primary screen, torsin A project, cell lysate, small-molecule microarray, fluorescence 635/667 (AID 1065)
condition-summary: higher = more signal, COS7 lysate expressing mutant human TOR1A
reported-metric: composite z-score
Answer using only a numeral; do not append any unit.

// worked examples, composite z-score included
# compound, composite z-score
records = [
    ("CN(C)C(=O)[C@]1(Cc2ccccc2)N=C(c2ccc(OCCCO)cc2)O[C@@H]1c1ccccc1CN=[N+]=[N-]", 1.31),
    ("COC(=O)[C@H](Cc1ccccc1)N1CC2=CCCC=C[C@@H]2[C@H]1[C@H](O)Cc1ccccc1", 0.0803),
    ("O=C1C[C@@](C(=O)NCc2ccccc2)(c2ccc([N+](=O)[O-])cc2)[C@@H](c2ccc(CO)cc2)N1C1CCCCC1", 0.858),
    ("C=C(COC)/C(=C/C[C@H](OC(C)=O)c1ccccc1OCCO)c1cc(C(=O)OC)ccc1OC", 0.275),
    ("[N-]=[N+]=Nc1ccccc1[C@@H]1OC(c2ccc(OCCCO)cc2)=N[C@]1(CCS(=O)(=O)c1ccccc1)C(=O)NCC(O)CO (stereo partly specified)", 0.372),
]

Quick note, composite z-score for `C=CCOC(=O)[C@@H]1[C@H]2C(=O)O[C@H](c3ccccc3)[C@H](c3ccccc3)N2[C@H](c2ccc(OCCOC(=O)[C@H]3C[C@H]4C(=O)NCC(=O)N4[C@H]3c3cccc(OCCO)c3)cc2)[C@@]12C(=O)Nc1ccc(I)cc12` landed at 0.727

Quick note, composite z-score for CCC(CC)C(O)C1C=CC2C(=O)N(c3ccccc3)C(=O)C2N1Nc1ccccc1F (stereo unspecified) landed at 1.01

Quick note, composite z-score for [N-]=[N+]=Nc1ccccc1[C@H]1OC(c2ccc(OCCCO)cc2)=N[C@@]1(Cc1ccccc1)C(=O)NCC(O)CO (stereo partly specified) landed at 0.0899

Quick note, composite z-score for O=C1C2C=CC(C(O)c3ccc([N+](=O)[O-])cc3)N(Nc3ccccc3F)C2C(=O)N1c1ccccc1 (stereo unspecified) landed at 0.173

Quick note, composite z-score for `O=C1c2ccccc2[C@@]2(Cc3ccccc3N(Cc3ccccc3)C2=O)[C@H](c2ccc(CO)cc2)N1Cc1ccccc1Cl` landed at -0.337

----------
Tested on: Inhibin beta A chain (activin A)
protocol-details: small molecules binding activin A – biochemical, small-molecule microarray, 635 nm fluorescence scan, primary screen (AID 1107);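 also: mouse activin A protein probed at 4.33 µg/mL on printed slides; score merges bound-protein fluorescence near 667 nm with spot signal-to-noise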
condition-summary: INHBA, higher = more signal
Some compounds, each annotated with its measured composite z-score.

// worked examples, composite z-score included
# compound, composite z-score
rows = [
    ("COc1ccc([Si](C)(C)[C@H]2[C@H](CCO)O[C@@]3(C(=O)N(Cc4cccc(N5C(=O)c6ccccc6Oc6ccccc65)c4)c4ccccc43)[C@@H]2C)cc1", 0.212),
    ("C=C(CCCC)/C(=C/C[C@H](OC(=O)c1ccncc1)c1ccc(OCCO)cc1)c1cnc2ccccc2c1", 1.36),
    ("COC(=O)[C@H](Cc1ccc(O)cc1)N[C@@H](/C=C/C1CC1)[C@H](O)Cc1ccccc1", -0.322),
]

Next:
Tested system Inhibin beta A chain (activin A); composite z-score recorded for [N-]=[N+]=Nc1ccccc1[C@H]1OC(c2ccc(OCCCO)cc2)=N[C@@]1(Cc1ccccc1)C(=O)NCC(O)CO (some centres undefined) was 0.647
